assay: in vitro metabolic stability in mouse plasma; conditions: 30 min and 60 min

COMPOUND	stability in mouse plasma (in words)
CC(C)OC(=O)C(CCC(=O)C=[N+]=[N-])NP(=O)(NC(CCC(=O)C=[N+]=[N-])C(=O)OC(C)C)Oc1ccccc1 (stereo not shown)	unstable
CC(C)C[C@H](N)C(=O)N[C@@H](CCC(=O)C=[N+]=[N-])C(=O)OC(C)C	unstable
CC(C)OC(=O)[C@H](CCC(=O)C=[N+]=[N-])NP(=O)(Oc1ccccc1)Oc1ccccc1	unstable

====

experiment: in vitro metabolic stability in pig plasma; conditions: 30 min and 60 min

COMPOUND	stability in pig plasma (in words)
CC(C)OC(=O)[C@H](CCC(=O)C=[N+]=[N-])NP(=O)(Oc1ccccc1)Oc1ccccc1	stable
CC(C)OC(=O)C(CCC(=O)C=[N+]=[N-])NP(=O)(NC(CCC(=O)C=[N+]=[N-])C(=O)OC(C)C)Oc1ccccc1 (stereo not shown)	stable
